Test system: 616215-338-R-J1-PDC spheroids with HUVEC/MSC, viability;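 also: spheroids exposed to agents for seven days before the viability read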
Test: Anticancer human tumor 616215-338-R-J1-PDC patient-derived colon adenocarcinoma cell line growth inhibition [PI3K]
Conditions: second compound 0.316 µM; first compound 0.1 µM; stronger effect = lower value
Property name: viability, T/C (%)

> print(dat)
                                   compound  endpoint.result
1  C[C@@H](NC(=O)c1ncnc(N)c1Cl)c1ncc(C(=O)Nc2cc(C(F)(F)F)c(Cl)cn2)s1 + CC(Nc1ccc2c(c1)OCCn1cc(N3C(=O)OCC3C(F)F)nc1-2)C(N)=O               99
2  CC(=O)c1c(C)c2cnc(Nc3ccc(N4CCNCC4)cn3)nc2n(C2CCCC2)c1=O + CC(Nc1ccc2c(c1)OCCn1cc(N3C(=O)OCC3C(F)F)nc1-2)C(N)=O             90.2
3  CCN1CCN(Cc2ccc(Nc3ncc(F)c(-c4cc(F)c5nc(C)n(C(C)C)c5c4)n3)nc2)CC1 + CC(Nc1ccc2c(c1)OCCn1cc(N3C(=O)OCC3C(F)F)nc1-2)C(N)=O             97.8

Origin of measurements: PubChem BioAssay AID1963978
